Entry source: patent US10844077B2

Target: ATR (Homo sapiens (Human), UniProt Q13535)
Sequence (Q13535 whole entry): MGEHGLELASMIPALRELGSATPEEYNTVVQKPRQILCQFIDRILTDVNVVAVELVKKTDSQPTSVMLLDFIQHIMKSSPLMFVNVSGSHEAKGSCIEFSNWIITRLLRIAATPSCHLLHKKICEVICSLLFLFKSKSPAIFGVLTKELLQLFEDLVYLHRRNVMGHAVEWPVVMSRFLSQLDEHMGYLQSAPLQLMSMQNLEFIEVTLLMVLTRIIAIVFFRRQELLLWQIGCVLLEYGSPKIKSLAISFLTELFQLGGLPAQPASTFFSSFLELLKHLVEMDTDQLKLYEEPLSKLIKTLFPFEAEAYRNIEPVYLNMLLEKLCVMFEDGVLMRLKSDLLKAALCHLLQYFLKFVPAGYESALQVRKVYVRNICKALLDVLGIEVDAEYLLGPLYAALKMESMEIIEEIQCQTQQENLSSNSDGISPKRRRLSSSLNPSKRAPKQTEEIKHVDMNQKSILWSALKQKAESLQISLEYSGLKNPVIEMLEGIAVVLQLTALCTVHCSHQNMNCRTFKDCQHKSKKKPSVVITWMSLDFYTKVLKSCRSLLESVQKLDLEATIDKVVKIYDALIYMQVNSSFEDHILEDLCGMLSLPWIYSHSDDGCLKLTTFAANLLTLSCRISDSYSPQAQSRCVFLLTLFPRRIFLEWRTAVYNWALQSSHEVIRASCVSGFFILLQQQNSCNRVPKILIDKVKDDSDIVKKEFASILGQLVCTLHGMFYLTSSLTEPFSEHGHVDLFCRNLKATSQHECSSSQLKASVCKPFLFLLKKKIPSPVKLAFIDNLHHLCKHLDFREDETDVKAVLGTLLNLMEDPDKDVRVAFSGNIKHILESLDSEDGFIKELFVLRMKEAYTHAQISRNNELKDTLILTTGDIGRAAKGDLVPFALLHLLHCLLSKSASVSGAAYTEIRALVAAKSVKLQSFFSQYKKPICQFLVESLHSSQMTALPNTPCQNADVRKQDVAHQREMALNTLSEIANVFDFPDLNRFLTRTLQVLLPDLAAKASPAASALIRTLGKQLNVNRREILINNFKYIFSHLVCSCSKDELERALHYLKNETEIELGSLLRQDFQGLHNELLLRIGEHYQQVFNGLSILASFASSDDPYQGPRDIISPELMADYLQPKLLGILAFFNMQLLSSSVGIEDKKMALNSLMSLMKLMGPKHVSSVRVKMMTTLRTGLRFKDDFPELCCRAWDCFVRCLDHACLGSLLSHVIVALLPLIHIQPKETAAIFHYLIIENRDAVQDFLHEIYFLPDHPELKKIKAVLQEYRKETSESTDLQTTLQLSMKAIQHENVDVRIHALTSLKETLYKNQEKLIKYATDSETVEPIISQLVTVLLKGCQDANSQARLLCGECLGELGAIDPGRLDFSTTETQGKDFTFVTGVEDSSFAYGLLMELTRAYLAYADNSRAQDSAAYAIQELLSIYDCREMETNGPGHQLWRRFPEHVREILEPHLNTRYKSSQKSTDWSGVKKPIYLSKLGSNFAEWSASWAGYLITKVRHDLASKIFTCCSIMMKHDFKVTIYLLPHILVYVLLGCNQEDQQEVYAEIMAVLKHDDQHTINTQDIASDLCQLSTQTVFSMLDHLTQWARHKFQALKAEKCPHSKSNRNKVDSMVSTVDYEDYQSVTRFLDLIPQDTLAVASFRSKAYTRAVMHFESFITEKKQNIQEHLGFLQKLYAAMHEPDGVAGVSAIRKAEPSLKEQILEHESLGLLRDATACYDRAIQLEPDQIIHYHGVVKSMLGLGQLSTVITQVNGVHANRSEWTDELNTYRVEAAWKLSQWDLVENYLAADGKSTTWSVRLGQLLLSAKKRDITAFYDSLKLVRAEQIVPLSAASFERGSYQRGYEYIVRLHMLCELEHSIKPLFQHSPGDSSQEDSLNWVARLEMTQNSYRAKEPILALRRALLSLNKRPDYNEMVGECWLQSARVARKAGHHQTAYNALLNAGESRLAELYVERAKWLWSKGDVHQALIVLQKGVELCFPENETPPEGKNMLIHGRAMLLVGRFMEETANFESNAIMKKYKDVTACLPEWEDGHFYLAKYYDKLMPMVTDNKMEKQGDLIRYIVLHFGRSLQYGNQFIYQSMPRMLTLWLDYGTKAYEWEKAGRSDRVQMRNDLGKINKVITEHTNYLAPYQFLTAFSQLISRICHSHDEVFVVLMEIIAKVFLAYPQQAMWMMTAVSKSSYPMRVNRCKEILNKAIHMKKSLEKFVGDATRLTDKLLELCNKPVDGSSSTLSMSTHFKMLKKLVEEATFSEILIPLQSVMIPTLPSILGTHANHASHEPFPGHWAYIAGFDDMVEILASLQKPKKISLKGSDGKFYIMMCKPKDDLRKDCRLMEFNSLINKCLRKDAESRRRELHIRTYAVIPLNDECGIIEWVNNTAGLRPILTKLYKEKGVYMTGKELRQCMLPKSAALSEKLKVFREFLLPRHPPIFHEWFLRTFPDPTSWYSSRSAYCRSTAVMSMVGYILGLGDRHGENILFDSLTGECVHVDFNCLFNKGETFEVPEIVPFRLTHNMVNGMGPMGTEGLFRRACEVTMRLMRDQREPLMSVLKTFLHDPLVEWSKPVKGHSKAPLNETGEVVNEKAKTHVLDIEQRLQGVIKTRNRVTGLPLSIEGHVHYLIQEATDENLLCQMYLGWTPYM
Sequence (Q8WXE1 whole entry partner): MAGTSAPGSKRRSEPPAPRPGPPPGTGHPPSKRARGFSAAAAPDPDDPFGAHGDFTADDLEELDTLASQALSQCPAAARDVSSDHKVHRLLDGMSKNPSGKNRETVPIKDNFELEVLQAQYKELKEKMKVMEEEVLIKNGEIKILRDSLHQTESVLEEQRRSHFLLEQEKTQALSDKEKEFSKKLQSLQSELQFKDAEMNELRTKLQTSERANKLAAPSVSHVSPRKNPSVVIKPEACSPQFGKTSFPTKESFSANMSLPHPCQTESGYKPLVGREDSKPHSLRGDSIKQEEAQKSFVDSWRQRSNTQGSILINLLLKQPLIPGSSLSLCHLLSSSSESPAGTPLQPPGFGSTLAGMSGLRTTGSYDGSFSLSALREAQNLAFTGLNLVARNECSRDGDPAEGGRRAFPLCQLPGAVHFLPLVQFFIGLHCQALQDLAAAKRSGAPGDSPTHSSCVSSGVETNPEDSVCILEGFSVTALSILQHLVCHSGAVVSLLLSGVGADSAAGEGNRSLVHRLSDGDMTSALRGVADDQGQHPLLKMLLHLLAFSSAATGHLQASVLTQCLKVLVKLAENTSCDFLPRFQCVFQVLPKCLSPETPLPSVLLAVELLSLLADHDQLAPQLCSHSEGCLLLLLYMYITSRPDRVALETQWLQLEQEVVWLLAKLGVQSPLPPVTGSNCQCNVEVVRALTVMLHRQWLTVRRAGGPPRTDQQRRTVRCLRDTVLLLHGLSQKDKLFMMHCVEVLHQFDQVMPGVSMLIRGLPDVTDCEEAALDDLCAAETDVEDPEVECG
Assay: KINATIV assay
Type: cell-based
Conditions: 1 μM, 90 minutes, BCWM.1 cells
Protocol: The cells were harvested and lysed. The lysates were directly labeled with an ATP-biotin probe. Bound kinases were identified and quantitated by ACTIVX as described in Patricelli et al., Biochemistry, 2007, 46(2): 350-358. The compounds were tested in duplicates against duplicate or quadruplicate control samples.
QUANTITY_KIND: % change of MS signal compared to control sample (%)

INSERT INTO measurements (compound, test_value) VALUES
  ('C=CC(=O)N1CCCCC(Nc2nccc(Nc3ncc(C(=O)Nc4c(C)cccc4C)s3)n2)C1 (stereo not drawn)', '−48.0'),
  ('C=CC(=O)N1CCC(Cn2ccc(Nc3ncc(C(=O)Nc4c(C)cccc4Cl)s3)n2)C1 (stereo not drawn)', '−55.3'),
  ('C=CC(=O)N1CC[C@@H](Nc2nccc(Nc3ncc(C(=O)Nc4c(C)cccc4C)s3)n2)C1', '−66.1');
